Reported Cmax values for the following compounds.
# assay.procedure: Pharmacokinetic study in rats (oral gavage and tail vein injection, plasma LC-MS/MS)
# Type: in vivo
# experimental.context: male, rat, SD rats, Iv, 1 mg/kg, read-out: Cmax

> print(dat)
                                   compound  readout.label       obs.value
1  Cc1nc(-c2nnn(C)c2CNC(=O)OCCC(C)C)ccc1C#CC1(CC(=O)O)CC1 [compound 253]           Cmax    5 to 8 µg/mL
2  CC(OC(=O)Nc1c(-c2ccc(C#CC3(CC(=O)O)CC3)c(F)n2)nnn1C)C12CC(C1)C2 (stereo not shown) [237-A]           Cmax    5 to 8 µg/mL
3  Cc1nc(-c2nnn(C)c2NC(=O)O[C@H](C)CC(C)(C)F)ccc1C#C[C@@H]1CCC[C@H]1C(=O)O (mixture of isomers) [244-B]           Cmax  0.8 to 5 µg/mL

Quick one: Cmax of Cc1nc(-c2nnn(C)c2NC(=O)O[C@H](C)CC(C)(F)F)ccc1C#C[C@@H]1CC[C@H]1C(=O)O (mixture of isomers) [compound 213] ?
0.8 to 5 µg/mL

What does the data say about its Cmax? Entry: Cc1nc(-c2nnn(C)c2NC(=O)OC(C)CCC(F)F)ccc1C#CC1(CC(=O)O)CC1 (stereo not shown) [compound 283]
0.8 to 5 µg/mL

Recorded Cmax for Cc1nc(-c2nnn(C)c2CNc2nccc(C3CC(F)(F)C3)n2)ccc1C#CC1(CC(=O)O)CC1 [compound 254] , please?
5 to 8 µg/mL

Fill blank: measured Cmax of the compound CCc1nc(-c2nnn(C)c2NC(=O)O[C@H](C)C(F)(F)CC)ccc1C#CC1(CC(=O)O)CC(OC)C1 (stereo partly shown) [compound 462] is ____.
8 to 12 µg/mL

====

Form field: AUC(0-t) (one value per entry).
# assay.procedure: Pharmacokinetic study in rats (oral gavage and tail vein injection, plasma LC-MS/MS)
# Assay type: in vivo
# experimental.context: rat, SD rats, Iv, 1 mg/kg

Worked set:
> print(dat)
                                   molecule  readout.label              obs.value
1  Cc1nc(-c2nnn(C)c2NC(=O)OC(C)C23CC(C2)C3)ccc1C#CC1(CC(=O)O)CC1 (racemic) [compound 260]       AUC(0-t)  5000 to 10000 ng·h/mL
2  CCC(F)(F)[C@@H](C)OC(=O)Nc1c(-c2ccc(C#CC3(CC(=O)O)CC(OC)C3)c(C)n2)nnn1C (stereo partly shown) [compound 279]       AUC(0-t)  5000 to 10000 ng·h/mL
3  CCCC[C@@H](C)OC(=O)Nc1c(-c2ccc(C#CC3(CC(=O)O)CC3)c(C)n2)nnn1C [compound 313]       AUC(0-t)   3000 to 5000 ng·h/mL
4  CCCCN(C)C(=O)OCc1c(-c2ccc(C#CC3(CC(=O)O)CC3)c(F)n2)nnn1C [compound 105]       AUC(0-t)   1200 to 3000 ng·h/mL
5  Cc1nc(-c2nnn(C)c2NC(=O)OC(C)CC(C)(F)F)ccc1C#CC1(CC(=O)O)CC1 (racemic) [compound 311]       AUC(0-t)  5000 to 10000 ng·h/mL

If you can, please state the reported AUC(0-t) value of Cc1nc(-c2nnn(C)c2NC(=O)O[C@H](C)c2ccccc2Cl)ccc1C#C[C@H]1CC[C@@H]1C(=O)O [compound 033] .
3000 to 5000 ng·h/mL

Dear colleague, I am looking for the recorded AUC(0-t) of the following molecule: Cc1nc(-c2nnn(C)c2COC(=O)N(C)CC2CCC2)ccc1C#CC1CC1C(=O)O (racemic) [compound 361]
1200 to 3000 ng·h/mL
